Biological target: T1, human GIP receptor (human, UniProt P48546 22-466)
T1 sequence (looked up): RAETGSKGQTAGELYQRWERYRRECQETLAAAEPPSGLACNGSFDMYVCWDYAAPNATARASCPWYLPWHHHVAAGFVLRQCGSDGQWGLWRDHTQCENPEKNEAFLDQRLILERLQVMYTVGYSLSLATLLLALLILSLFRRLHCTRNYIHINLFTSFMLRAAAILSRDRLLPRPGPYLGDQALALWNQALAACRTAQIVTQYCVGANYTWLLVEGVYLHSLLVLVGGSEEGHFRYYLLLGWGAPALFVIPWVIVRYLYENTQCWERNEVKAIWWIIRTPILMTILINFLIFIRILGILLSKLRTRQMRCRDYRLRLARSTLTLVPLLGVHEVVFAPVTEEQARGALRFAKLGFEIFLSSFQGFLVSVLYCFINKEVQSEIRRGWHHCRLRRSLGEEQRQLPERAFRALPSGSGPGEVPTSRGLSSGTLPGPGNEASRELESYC
Assay: cell-based or functional assay
Bridges are numbered along the chain shown (N, C = ends). Where no end group is shown, it is not given here. [ ]: non-standard residue; d: D form. The star is where a group is joined. Acetyl(2-(4-imidazolyl)) = O=C(Cc1c[nH]cn1)*; Aib = CC(C)(N)C(=O)O
Entries and their In vitro activity compared with native peptide (%) vs. GIP values follow.
Dear colleague, please return just the value in %, with no unit written.

# count of solved cases: 5
H[Aib]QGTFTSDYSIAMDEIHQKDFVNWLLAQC (bridge 16-20) [Triple agonist of SEQ ID NO: 55]	2.4
Y[Aib]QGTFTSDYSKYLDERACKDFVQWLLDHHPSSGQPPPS (bridge 16-20) [Triple agonist of SEQ ID NO: 71]	94.7
H[Aib]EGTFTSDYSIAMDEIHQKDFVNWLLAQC (bridge 16-20) [Triple agonist of SEQ ID NO: 53]	1.3
{Acetyl(2-(4-imidazolyl))}-[Aib]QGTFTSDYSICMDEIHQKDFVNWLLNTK (bridge 15-19) [Triple agonist of SEQ ID NO: 49]	3.3
Y[Aib]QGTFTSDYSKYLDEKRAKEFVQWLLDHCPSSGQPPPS (bridge 16-20) [Triple agonist of SEQ ID NO: 96]	5.2

Next binder, please.
Exercise: Entry Y[Aib]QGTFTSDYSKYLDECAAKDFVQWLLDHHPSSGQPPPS (also: ring formation, positions not given here) [Triple agonist of SEQ ID NO: 67] has what In vitro activity compared with native peptide (%) vs. GIP?
Key: 39.8
